Molecular target: Dickkopf-related protein 1 (Homo sapiens) (UniProt O94907)
Sequence (O94907 whole entry, looked up): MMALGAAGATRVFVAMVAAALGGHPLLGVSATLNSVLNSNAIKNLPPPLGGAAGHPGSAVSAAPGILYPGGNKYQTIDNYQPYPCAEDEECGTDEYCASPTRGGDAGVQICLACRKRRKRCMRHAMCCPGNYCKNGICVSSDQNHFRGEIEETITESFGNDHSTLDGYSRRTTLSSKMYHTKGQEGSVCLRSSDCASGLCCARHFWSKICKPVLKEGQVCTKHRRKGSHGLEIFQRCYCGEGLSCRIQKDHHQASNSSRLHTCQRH
Assay: DKK1 binders on small-molecule microarrays, primary screen, biochemical, small-molecule microarray, 635 nm fluorescence scan (AID 1106);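 further: score merges emission near 667 nm with signal to noise over three replicate slides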
Settings: DKK1 binding, higher = more signal
// reported composite z-score for each item listed
Form rule: numeric answer, no unit written next to it.

compound: C=CCC(OC(C)=O)[C@@H]1[C@@H](N(Cc2cccc3ccccc23)C(=O)Cc2ccc(F)cc2)c2cc(OCCCO)ccc2N1C(=O)Cc1ccc2ccccc2c1 (some centres undefined)
composite z-score: -0.619
--
compound: C=C(CCCC)/C(=C/C[C@@H](OC(=O)c1ccncc1)c1ccc(CO)o1)c1cnc2ccccc2c1
composite z-score: 1.53

Ask: Reported composite z-score for Dickkopf-related protein 1 (Homo sapiens) (UniProt O94907), given O=C/C=C/c1ccccc1Cl ?
Reply: -0.485

Ask: composite z-score of O=C(CS)NCCCCCNC(=O)[C@H]1C[C@H]2C(=O)N[C@@H](Cc3ccccc3)C(=O)N2[C@H]1c1ccc(O)cc1 on Dickkopf-related protein 1 (Homo sapiens) (UniProt O94907)?
Reply: 1.25
